Numbers sourced from ChEMBL document CHEMBL1275283.

# MEASURED_ON: Cytochrome P450 2D6 (Homo sapiens)
# Sequence (P10635 whole entry): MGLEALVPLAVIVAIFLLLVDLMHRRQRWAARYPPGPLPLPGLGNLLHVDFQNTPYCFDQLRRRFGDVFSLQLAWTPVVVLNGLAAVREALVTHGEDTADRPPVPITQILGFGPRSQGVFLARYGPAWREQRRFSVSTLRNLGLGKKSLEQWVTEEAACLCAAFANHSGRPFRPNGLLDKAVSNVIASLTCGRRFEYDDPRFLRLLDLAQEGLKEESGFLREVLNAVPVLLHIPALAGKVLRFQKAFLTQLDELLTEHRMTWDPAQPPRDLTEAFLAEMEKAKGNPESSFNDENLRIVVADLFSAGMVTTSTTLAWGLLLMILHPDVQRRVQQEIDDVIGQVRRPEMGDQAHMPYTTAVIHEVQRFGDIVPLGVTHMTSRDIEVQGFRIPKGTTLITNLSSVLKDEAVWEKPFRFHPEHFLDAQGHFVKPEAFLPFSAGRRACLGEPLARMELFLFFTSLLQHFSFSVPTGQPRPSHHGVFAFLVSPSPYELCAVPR
RESULT_TYPE: IC50 (µM)
Dear colleague, please return just the value in µM, with no unit written.

`Fc1cccc2c1CCC1(CCN(c3ccc(-c4nnc(Cc5cccnc5)o4)nn3)CC1)O2` tested on Cytochrome P450 2D6 (Homo sapiens) gave IC50: 27

---

# ASSAY_TEXT: Tmax in C57BL/6J mouse at 20 mg/kg, po
# Assay type: ADME, organism-based
# Set-up: dose 20 mg/kg, route oral
# COND: in vivo
RESULT_TYPE: Tmax (min)
Dear colleague, please return just the value in min, with no unit written.

Below: 3 compounds and their reported Tmax.
ITEM_SMILES: Cc1cccc2c1CCC1(CCN(c3ccc(-c4nnc(Cc5cccnc5)o4)nn3)CC1)O2
Tmax / min: 48
--
ITEM_SMILES: Fc1cccc2c1CCC1(CCN(c3ccc(-c4nnc(Cc5cccnc5)o4)nn3)CC1)O2
Tmax / min: 78
--
ITEM_SMILES: Clc1cccc2c1CCC1(CCN(c3ccc(-c4nnc(Cc5cccnc5)o4)nn3)CC1)O2
Tmax / min: 48

Reported Tmax of `c1cncc(Cc2nnc(-c3ccc(N4CCC5(CCc6ccccc6O5)CC4)nn3)o2)c1` : 60
